Reference source: patent EP2308883A1

subject of test: GSK-3 (Plasmodium falciparum)
Construct: made in house
Sequence (O77344 entry or part of it): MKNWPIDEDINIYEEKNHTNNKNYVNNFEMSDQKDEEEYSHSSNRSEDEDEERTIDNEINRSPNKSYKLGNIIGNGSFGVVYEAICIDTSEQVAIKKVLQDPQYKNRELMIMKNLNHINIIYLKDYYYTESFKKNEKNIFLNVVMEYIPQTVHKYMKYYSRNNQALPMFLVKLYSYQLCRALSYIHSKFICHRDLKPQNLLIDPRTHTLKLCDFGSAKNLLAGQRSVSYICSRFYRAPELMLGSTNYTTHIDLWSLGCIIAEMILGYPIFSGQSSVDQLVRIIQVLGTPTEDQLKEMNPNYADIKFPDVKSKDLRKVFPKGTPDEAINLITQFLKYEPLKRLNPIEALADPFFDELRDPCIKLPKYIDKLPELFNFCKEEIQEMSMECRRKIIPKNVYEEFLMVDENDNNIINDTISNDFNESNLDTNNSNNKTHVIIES
assay summary: Species specificity: recombinant tagged GSK-3 orthologue kinase assay
Format: biochemical
Description: Given the strong conservation of GSK-3 across evolution and the surprising selectivity of the compounds according to the present invention towards PfGSK-3 versus mammalian GSK-3, a selection of 12 GSK-3 orthologues of various species chosen on the "tree of life" analyzed. […]
endpoint label: log10 of IC50 (log10 of the value in nM)
The common logarithm of IC50 in nM is what is listed.

The molecule identified as N#Cc1cccc(C(=O)c2sc3nc(N)c(C#N)c(-c4ccccc4Cl)c3c2N)c1 registered its log10 of IC50 at 2.32

Record summary for N#Cc1c(N)nc2sc(C(=O)c3cccc(Cl)c3)c(N)c2c1-c1ccccc1Br : reported log10 of IC50 = 2.67

The molecule listed as N#Cc1c(N)nc2sc(C(=O)c3ccc(Cl)cc3)c(N)c2c1-c1ccccc1I shows log10 of IC50 equal to 3.28

What the record says about N#Cc1c(N)nc2sc(C(=O)c3cccc(Cl)c3)c(N)c2c1-c1ccccc1Cl : log10 of IC50 is 2.61

The molecule listed as COc1ccccc1-c1c(C#N)c(N)nc2sc(C(=O)c3ccccc3)c(N)c12 has a reported log10 of IC50 of 3.89
